So I've got a bunch of variants here, and I need their protein stability index values.
B1: HMOX1 (parent)
chain: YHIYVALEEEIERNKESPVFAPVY

Variants of: B1
ASSAY NOTES: protein stability index of a GFP-peptide fusion (GPS, HEK-293T) (PSI 1-6); higher = more stable;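 further: lentivirally expressed fusions sorted by FACS into six bins by GFP to DsRed ratio, PSI derived from sequencing read proportions per bin multiplied by bin number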
ASSAY CONTEXT: c terminus: a fixed tail appended
Reply with just the number.

What the record says about A6Y : protein stability index is 2.62

What the record says about L7D : protein stability index is 2.03

What the record says about I11G : protein stability index is 2.24

What the record says about E10A : protein stability index is 2.59

What the record says about H2G : protein stability index is 2.57

What the record says about A6F : protein stability index is 3.88

What the record says about V23A : protein stability index is 2.27

What the record says about F20H : protein stability index is 2.47

What the record says about V19G : protein stability index is 2.37

What the record says about K15R : protein stability index is 1.38

What the record says about V19T : protein stability index is 2.32

What the record says about V5T : protein stability index is 3.39

What the record says about P22D : protein stability index is 1.8

What the record says about E10H : protein stability index is 1.97

What the record says about Y24N : protein stability index is 2.9

What the record says about H2S : protein stability index is 2.46

What the record says about Y4F : protein stability index is 4.8

What the record says about A21G : protein stability index is 2.43

What the record says about A6M : protein stability index is 2

What the record says about N14Y : protein stability index is 1.45

What the record says about E16T : protein stability index is 2.12

What the record says about E16F : protein stability index is 2.84
